# measurement-conditions: in water, 298.15 K
measure: solubility (mole fraction)
# respond with the number and nothing more

Exercise: Need solubility (mole fraction), item O=c1cc[nH]c(=O)[nH]1
Key: 0.000332

###

# measurement-conditions: in methanol, 283.15 K
measure: solubility (mole fraction)
# respond with the number and nothing more

Exercise: Need solubility (mole fraction), item O=c1cc[nH]c(=O)[nH]1
Key: 0.000152

###

# measurement-conditions: in methanol, 303.15 K
measure: solubility (mole fraction)

Exercise: Need solubility (mole fraction), item O=c1cc[nH]c(=O)[nH]1
Key: 0.000307

###

# measurement-conditions: in water, 288.15 K
measure: solubility (mole fraction)

Exercise: Need solubility (mole fraction), item O=c1cc[nH]c(=O)[nH]1
Key: 0.000209

###

# measurement-conditions: in water, 303.15 K
measure: solubility (mole fraction)
# respond with the number and nothing more

Exercise: Need solubility (mole fraction), item O=c1cc[nH]c(=O)[nH]1
Key: 0.00042

###

# measurement-conditions: in ethanol, 308.15 K
measure: solubility (mole fraction)
# respond with the number and nothing more

Exercise: Need solubility (mole fraction), item O=c1cc[nH]c(=O)[nH]1
Key: 0.000212

###

# measurement-conditions: in isopropanol, 288.15 K
measure: solubility (mole fraction)
# respond with the number and nothing more

Exercise: Need solubility (mole fraction), item O=c1cc[nH]c(=O)[nH]1
Key: 7.6e-05

###

# measurement-conditions: in water, 313.15 K
measure: solubility (mole fraction)

Exercise: Need solubility (mole fraction), item O=c1cc[nH]c(=O)[nH]1
Key: 0.000613

###

# measurement-conditions: in methanol, 298.15 K
measure: solubility (mole fraction)

Exercise: Need solubility (mole fraction), item O=c1cc[nH]c(=O)[nH]1
Key: 0.000253

###

# measurement-conditions: in water, 318.15 K
measure: solubility (mole fraction)

Exercise: Need solubility (mole fraction), item O=c1cc[nH]c(=O)[nH]1
Key: 0.000738

###

# measurement-conditions: in ethanol, 318.15 K
measure: solubility (mole fraction)
# respond with the number and nothing more

Exercise: Need solubility (mole fraction), item O=c1cc[nH]c(=O)[nH]1
Key: 0.000296

###

# measurement-conditions: in water, 308.15 K
measure: solubility (mole fraction)
# respond with the number and nothing more

Exercise: Need solubility (mole fraction), item O=c1cc[nH]c(=O)[nH]1
Key: 0.000513

###

# measurement-conditions: in isopropanol, 308.15 K
measure: solubility (mole fraction)
# respond with the number and nothing more

Exercise: Need solubility (mole fraction), item O=c1cc[nH]c(=O)[nH]1
Key: 0.000216

###

# measurement-conditions: in methanol, 318.15 K
measure: solubility (mole fraction)
# respond with the number and nothing more

Exercise: Need solubility (mole fraction), item O=c1cc[nH]c(=O)[nH]1
Key: 0.000519

###

# measurement-conditions: in isopropanol, 298.15 K
measure: solubility (mole fraction)
# respond with the number and nothing more

Exercise: Need solubility (mole fraction), item O=c1cc[nH]c(=O)[nH]1
Key: 0.00014
